The reported numbers originate from patent US11279703B2.

molecular target: JAK2 (Homo sapiens (Human)); experiment: HTRF kinase assay, JAK2; type: biochemical; conditions: Table 6
measured_endpoint: IC50 (nM)
// units = nM; emit number, no label

Some solved cases for reference:
CC(C)(C)S(=O)(=O)Nc1cccc(Nc2nc(NC3CCN(c4ccccc4)CC3)nc3sccc23)c1; 10000
CN(C)C1CCN(c2ccc(Nc3ncc4ccn(-c5cccc(NS(=O)(=O)C6(C)CC6)c5)c4n3)cc2)CC1; 6
CC1CNCCC1Nc1nc(Nc2ccc3c(c2)N(S(=O)(=O)C(C)(C)C)CC3)c2ccsc2n1 (centres unmarked); 10000
CC1CNCCC1Nc1nc(Nc2cccc(NS(=O)(=O)C(C)(C)C)c2)c2ccsc2n1 (centres unmarked); 10000
CC(C)(C)S(=O)(=O)Nc1cccc(Nc2nc(NC3CCNC(=O)C3)nc3sccc23)c1 (centres unmarked); 10000
Cc1cnc(Nc2ccc(N3CCN(C)CC3)cc2)nc1Nc1cccc(NS(=O)(=O)C(C)(C)C)c1 [drawing 391]; 6
CN1CCC(NC(=O)c2ccc(Nc3ncc4ccn(-c5ccc(F)c(NS(=O)(=O)C(C)(C)C)c5)c4n3)cc2F)CC1 [drawing 363]; 130
CN1CCC(Nc2nc(Nc3cccc(NS(=O)(=O)C(C)(C)C)c3)c3cc[nH]c3n2)CC1; 10000
CC(C)(C)S(=O)(=O)Nc1cc(-n2ccc3cnc(Nc4ccc(C5CCNCC5)cc4)nc32)ccc1F; 1600
Cc1cnc(Nc2ccc(N3CCN(C)CC3)cc2)nc1Nc1cccc(NS(=O)(=O)C(C)(C)C)c1 [drawing 353]; 6.6

Q: Quick one: IC50 of CN(C)C1CCN(C(=O)c2ccc(Nc3ncc4ccn(-c5ccc(F)c(NS(=O)(=O)C(C)(C)C)c5)c4n3)cc2F)CC1 ?
Ans: 170

----------
molecular target: JAK2 (Homo sapiens (Human), UniProt O60674); assay: HTRF kinase assay, JAK2; type: biochemical; details: Table 6
Sequence (O60674 whole entry): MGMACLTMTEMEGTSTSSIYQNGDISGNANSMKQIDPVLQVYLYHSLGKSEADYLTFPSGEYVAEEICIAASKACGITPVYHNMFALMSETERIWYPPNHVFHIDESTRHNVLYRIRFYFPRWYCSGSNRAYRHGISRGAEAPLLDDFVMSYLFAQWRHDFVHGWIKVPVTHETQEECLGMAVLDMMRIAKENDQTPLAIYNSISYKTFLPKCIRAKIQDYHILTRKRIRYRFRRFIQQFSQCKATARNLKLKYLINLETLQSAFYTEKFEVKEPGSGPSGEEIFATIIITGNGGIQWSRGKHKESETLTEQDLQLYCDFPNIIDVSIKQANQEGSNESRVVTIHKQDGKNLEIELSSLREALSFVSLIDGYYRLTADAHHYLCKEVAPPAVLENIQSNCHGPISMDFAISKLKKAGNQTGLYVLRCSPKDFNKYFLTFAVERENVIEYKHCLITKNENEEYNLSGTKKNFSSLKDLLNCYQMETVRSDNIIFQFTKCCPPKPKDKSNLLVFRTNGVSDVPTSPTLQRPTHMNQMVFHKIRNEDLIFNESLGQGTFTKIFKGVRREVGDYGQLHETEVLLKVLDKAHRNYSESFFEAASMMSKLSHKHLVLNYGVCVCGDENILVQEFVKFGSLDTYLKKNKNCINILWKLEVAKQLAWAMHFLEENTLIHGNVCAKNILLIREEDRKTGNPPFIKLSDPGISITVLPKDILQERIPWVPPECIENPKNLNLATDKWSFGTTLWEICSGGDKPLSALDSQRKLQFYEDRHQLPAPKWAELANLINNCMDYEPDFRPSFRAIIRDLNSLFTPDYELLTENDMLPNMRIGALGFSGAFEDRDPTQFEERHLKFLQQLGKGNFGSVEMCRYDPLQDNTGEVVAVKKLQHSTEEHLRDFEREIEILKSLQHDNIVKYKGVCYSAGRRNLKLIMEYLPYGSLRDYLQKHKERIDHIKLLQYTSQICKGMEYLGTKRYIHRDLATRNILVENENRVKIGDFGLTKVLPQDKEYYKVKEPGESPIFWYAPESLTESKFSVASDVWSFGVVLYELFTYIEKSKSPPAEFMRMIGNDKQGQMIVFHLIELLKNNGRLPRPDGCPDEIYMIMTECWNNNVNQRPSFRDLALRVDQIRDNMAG
The entries below are paired with their reported pIC50.
# log scale: pIC50 equals minus log10 of the concentration in mol/L

The examples below pair each entry with its known result.
Cc1ccc(-n2ccc3cnc(Nc4ccc(N5CCNCC5)cc4)nc32)cc1NS(=O)(=O)C1CC1; 7.51
CC(C)(C)S(=O)(=O)Nc1cccc(Nc2nc(NC3CCNCC3)nc3[nH]ccc23)c1; 5.00

Now look at this one.
Q: Fill in the blank: the reported pIC50 of CC(C)S(=O)(=O)N1CCN(c2ccc(Nc3ncc4ccn(-c5cccc(NS(=O)(=O)C(C)(C)C)c5)c4n3)cc2)CC1 is ____.
Ans: 6.92

----------
target: BRD4-BD1 (Homo sapiens (Human)); test: AlphaLisa bromodomain binding assay, BRD4-BD1; details: Table 6; read-out: BRD4(1) IC50
measured_endpoint: pIC50
pIC50 is defined as minus the log10 of a concentration measured in mol/L.

CN(c1cccc(Nc2nc(NC3CCNCC3)nc3sccc23)c1)S(=O)(=O)C(C)(C)C; 6.06
Cc1noc(C)c1-c1ccc2nc(N)sc2c1; 5.31

Q: Suppose we examine the molecule O=S(=O)(Nc1cccc(-n2ccc3cnc(Nc4ccc(N5CCNCC5)cc4)nc32)c1)C1CC1 [drawing 307] ; what pIC50 value has been reported?
Ans: 5.87

Q: # repeat for CC(=O)N1CCC(c2ccc(Nc3ncc4ccn(-c5cccc(NS(=O)(=O)C(C)(C)C)c5)c4n3)cc2)CC1
Ans: 5.00

----------
Molecular target: JAK2 (Homo sapiens (Human), UniProt O60674)
Assay: HTRF kinase assay, JAK2
Format: biochemical
Details: Table 6
Excerpt: A kinase assay with HTRF was used to observe JAK activity and calculate the IC50s of compounds disclosed herein. HTRF is an enzymatic assay used to determine the amount of phosphorylated peptide. FRET (Fluorescence Resonance Energy Transfer) is based on the transfer of energy between two fluorophores—a donor and an acceptor—when in close proximity. […] Equipment Required • 1. […] Microplate reader (Pherastar)] […]
Listed compounds paired with reported pIC50
# pIC50: negative log10 of molar concentration; output just the value

The following compounds have reported results that may help.
CN1CCCc2cc(Nc3ncc4ccn(-c5cccc(NS(=O)(=O)C(C)(C)C)c5)c4n3)ccc21; 7.15
CN1CCN(c2ccc(Nc3ncc4ccn(-c5cccc(NS(=O)(=O)C6CC6)c5)c4n3)cc2)CC1 [drawing 297]; 8.37
CN1CCN(c2ccc(Nc3ccc4ccn(-c5cccc(NS(=O)(=O)C(C)(C)C)c5)c4n3)cc2)CC1; 5.00
Cc1cnc(Nc2ccc(N3CCN(C)CC3)cc2)nc1Nc1cccc(NS(=O)(=O)C(C)(C)C)c1 [drawing 231]; 8.10
CN(c1cccc(Nc2nc(NC3CCNCC3)nc3sccc23)c1)S(=O)(=O)C(C)(C)C; 5.00

Q: Which pIC50 value is on record for CN1CCN(c2ccc(Nc3ncc4ccn(-c5ccc(Cl)c(NS(=O)(=O)C(C)(C)C)c5)c4n3)cc2)CC1 ?
Ans: 6.78

Q: Now give it for Cc1cnc(Nc2ccc(N3CCN(C)CC3)cc2)nc1Nc1cccc(NS(=O)(=O)C(C)(C)C)c1 [drawing 205] too.
Ans: 8.00

Q: Then this compound: CN1CCN(C(=O)c2ccc(Nc3ncc4ccn(-c5cccc(NS(=O)(=O)C(C)(C)C)c5)c4n3)cc2)CC1
Ans: 7.55

Q: Repeat with CC(C)S(=O)(=O)Nc1cccc(-n2ccc3cnc(Nc4ccc(N5CCN(C)CC5)cc4)nc32)c1
Ans: 8.09

Q: Subsequent entry: CNC1CCN(C(=O)c2ccc(Nc3ncc4ccn(-c5cccc(NS(=O)(=O)C(C)(C)C)c5)c4n3)cc2F)CC1
Ans: 7.54

Q: Same read-out for CN(C)C1CCN(c2ccc(Nc3ncc4ccn(-c5cccc(NS(=O)(=O)C(C)(C)C)c5)c4n3)cc2F)CC1 [drawing 401] ?
Ans: 8.36

Q: What do you have for CC(C)(C)S(=O)(=O)Nc1cccc(-n2ccc3cnc(Nc4ccc(CC(=O)NCCN)cc4)nc32)c1 ?
Ans: 7.19

Q: Now the compound Cc1cnc(Nc2ccc(N3CCN(C)CC3)cc2)nc1Nc1cccc(NS(=O)(=O)C(C)(C)C)c1 [drawing 281]
Ans: 8.00

Q: Repeat for the following compound: CN(C)C1CCN(c2ccc(Nc3ncc4ccn(-c5cccc(NS(=O)(=O)C(C)(C)C)c5)c4n3)cc2)CC1 [drawing 368]
Ans: 8.30

----------
target: BRD3-BD1 (Homo sapiens (Human), UniProt Q15059); experiment: AlphaLisa bromodomain binding assay, BRD3-BD1; details: Table 6; read-out: BRD3(1) IC50
Sequence (Q15059 34-140): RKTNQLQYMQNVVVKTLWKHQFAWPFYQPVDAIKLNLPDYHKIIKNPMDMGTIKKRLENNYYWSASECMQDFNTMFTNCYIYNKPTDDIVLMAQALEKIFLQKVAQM
pIC50 reference
By convention, pIC50 is the negative base-10 log of a molar concentration.

Please review the following examples before continuing.
CC(C)(C)S(=O)(=O)Nc1cccc(-c2csc3cnc(Nc4ccc(N5CCNCC5)c(F)c4)nc23)c1; 6.74
CC(C)(C)S(=O)(=O)Nc1cc(-n2ccc3cnc(Nc4cc(F)c5c(c4)CC4CNCCN54)nc32)ccc1F (stereo not shown) [drawing 465]; 7.08
CN1CCN(c2ccc(Nc3ncc4ccn(-c5cccc(NS(=O)(=O)C6CC6)c5)c4n3)cc2)CC1 [drawing 278]; 6.08

Q: Any idea what its pIC50 is? The compound is CN1CCC(Nc2nc(Nc3ccc4c(c3)N(S(=O)(=O)C(C)(C)C)CC4)c3ccsc3n2)CC1 [drawing 204]
Ans: 6.48

----------
Below, each entry is listed alongside its reported IC50.
molecular target: BRD2-BD1 (Homo sapiens (Human)); test: AlphaLisa bromodomain binding assay, BRD2-BD1; settings: Table 6; read-out: BRD2(1) IC50
Sequence (P25440 74-180): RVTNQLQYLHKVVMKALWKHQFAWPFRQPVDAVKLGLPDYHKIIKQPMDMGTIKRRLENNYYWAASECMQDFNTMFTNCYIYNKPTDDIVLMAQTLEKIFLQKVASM

Q: Query IC50 on BRD2-BD1 (Homo sapiens (Human)) for CC(C)(C)S(=O)(=O)Nc1cccc(-n2ccc3cnc(Nc4ccc(C5CCNCC5)cc4)nc32)c1
Ans: 1400 nM

Q: Continue with CC(C)(C)S(=O)(=O)Nc1cccc(-c2csc3cnc(Nc4ccc5c(c4)CCN4CCNCC54)nc23)c1 (stereo not drawn)
Ans: 489 nM

Q: Cool, now CN1CCN(c2ccc(Nc3ncc4ccn(-c5ccc(F)c(NS(=O)(=O)C(C)(C)C)c5)c4n3)cc2)CC1 [drawing 295]
Ans: 490 nM

----------
Below is a list of entries, each paired with its recorded pIC50 value.
biological target: BRD4-BD1 (Homo sapiens (Human), UniProt O60885); assay: AlphaLisa bromodomain binding assay, BRD4-BD1; settings: Table 6; read-out: BRD4(1) IC50
In textbook form, pIC50 equals minus log to base ten of the concentration in mol/L.

Examples with their reported pIC50 follow.
CN1CCN(c2cccc(Nc3ncc4ccn(-c5cccc(NS(=O)(=O)C(C)(C)C)c5)c4n3)c2)CC1; 5.77
CN1CCN(c2ccc(Nc3ncc4ccn(-c5cccc6c5CCN6S(=O)(=O)C(C)(C)C)c4n3)cc2)CC1; 5.00
CNCCNc1ncc2c(-c3cccc(-c4c(C)noc4C)c3)c[nH]c2n1; 5.49
COc1ccc(Nc2ncc(-n3ccc4c3CCNC4=O)cn2)cc1; 5.01

Q: What does the data say about its pIC50? Entry: COc1nc(Nc2ccc(N3CCN(C)CC3)cc2)nc2c1ccn2-c1cccc(NS(=O)(=O)C(C)(C)C)c1
Ans: 5.29

Q: Please answer likewise for Cc1cnc(Nc2ccc(N3CCN(C)CC3)cc2)nc1Nc1cccc(NS(=O)(=O)C(C)(C)C)c1 [drawing 384]
Ans: 6.86

Q: Param item: CN1CCN(C(=O)c2ccc(Nc3ncc4ccn(-c5cccc(NS(=O)(=O)C(C)(C)C)c5)c4n3)cc2)CC1
Ans: 6.11

Q: Follow-up entry: CC(C)(C)S(=O)(=O)Nc1cccc(-n2ccc3cnc(Nc4ccc(CC(=O)NCCN)cc4)nc32)c1
Ans: 6.39

Q: Next entry: CC(C)(C)S(=O)(=O)Nc1cccc(-c2csc3cnc(Nc4cc(F)c5c(c4)CC4CNCCN54)nc23)c1 (centres unmarked)
Ans: 6.12

Q: Param item: O=C(NC1CC1)c1ccn(-c2nc(NC3CCNCC3)nc3sccc23)c1 [drawing 229]
Ans: 5.74

Q: Would you mind doing CN(C)C1CCN(c2ccc(Nc3ncc4ccn(-c5ccc(F)c(NS(=O)(=O)C6CC6)c5)c4n3)cc2)CC1 as well?
Ans: 6.00

Q: Queued: CN1CCN2c3c(F)cc(Nc4ncc5ccn(-c6cccc(NS(=O)(=O)C(C)(C)C)c6)c5n4)cc3CC2C1 (centres unmarked)
Ans: 6.24

Q: And CC(C)(C)S(=O)(=O)Nc1cc(-n2ccc3cnc(Nc4ccc(N5CCNCC5)c(F)c4)nc32)ccc1F [drawing 428] ?
Ans: 7.22
